tested on: MDA-MB-231 (ER-negative) human breast cancer cell line; experiment: MTT cell viability assay, MDA-MB-231 cells; settings: Homo sapiens, MDA-MB-231, 48 h, read-out: MDA-MB-231 (ER− negative) IC50
Readout Kind: IC50 (µM)
Lab book: enter the figure in µM, no units written.

QUERY: Recorded IC50 for NCC/C(=C(\c1ccccc1)c1ccc(OCCO)cc1)c1ccccc1 , please?
RESULT: 25

More entries:
QUERY: Recorded IC50 for NCCOc1ccc(/C(=C(/CCN)c2ccccc2)c2ccccc2)cc1 , please?
RESULT: 17.1

----------
tested on: MDA-MB-231 (ER-negative) human breast cancer cell line; assay: MTT cell viability assay, MDA-MB-231 cells; conditions: MTT, 72 h, versus Ospemifene and Tamoxifen
Readout Kind: cytotoxic activity

QUERY: # value lookup — system MDA-MB-231 (ER-negative) human breast cancer cell line, readout cytotoxic activity, item COc1ccc(/C(=C(/CCNC(=O)C(=O)NC2CCCCC2)c2ccccc2)c2ccccc2)cc1
RESULT: remarkable activity

QUERY: Field entry: COc1ccc(/C(=C(/CCN)c2ccccc2)c2ccccc2)cc1
RESULT: remarkable activity
